Measured IC50 (LRRK2 wild type enzyme (Homo sapiens))
Write the answer as a number in nM, unit excluded.

The examples below pair each entry with its known result.
{"smiles string": "COc1nccnc1NC(=O)Cc1nc2cnc3ccc(C#N)cc3c2n1[C@@H]1CCO[C@H](C)C1", "measurement label": "IC50", "reported measurement": 0.574}
{"smiles string": "C[C@@H]1C[C@H](n2c([C@@H]3CCN(C(=O)C4CC4)C3)nc3cnc4ccc(C#N)cc4c32)CCO1", "measurement label": "IC50", "reported measurement": 9.19}
{"smiles string": "COc1nc(C)ncc1NC(=O)Cc1nc2cnc3ccc(C#N)cc3c2n1[C@@H]1CCO[C@H](C)C1", "measurement label": "IC50", "reported measurement": 0.4}

Continue with the next molecule.
Missing value: IC50, LRRK2 wild type enzyme (Homo sapiens), entry "C[C@@H]1C[C@H](n2c(CC(=O)NCc3ccncc3)nc3cnc4ccc(C#N)cc4c32)CCO1" . Fill in?
0.294
